Where do the numbers come from? From the RepoRT retention time repository.

Test: RP, Waters ACQUITY UPLC BEH C8, 100 × 2.1 mm, 1.7 µm, 55 °C, 0.6 mL/min, estimated dead time 0.37 min; A: 50% water + 25% acetonitrile + 25% isopropanol + 0.05% acetic acid + 20 µM phosphoric acid + 5 mM ammonium acetate; B: 50% acetonitrile + 50% isopropanol + 0.05% acetic acid + 5 mM ammonium acetate; gradient (min/%B) 0/1 0.1/1 2/30 11.5/90 12/99.9 12.5/99.9 12.55/65 12.65/30 12.75/1 12.95/1 13.25/1
Details: stereoisomer not certain
Reported LC retention time is given for each of the following molecules.
Give the value, in units of min, as a plain number.

CCCCCCCCCCCCCCCCCCCC(=O)OCC(O)COP(=O)([O-])OCC[N+](C)(C)C (centres undefined) [LPC(20:0/0:0)] = 3.02
CCCCCCCCCCCCCCCCCC(=O)OCC(O)COP(=O)(O)OCCN (centres undefined) [LPE(18:0/0:0)] = 2.48

In: I am curious: what LC retention time value has been reported for CCCCCCCCCCCCCCCCCC(=O)OC(CO)COP(=O)(O)OCCN (centres undefined) [LPE(0:0/18:0)] ?
Out: 2.38

In: Which measured LC retention time value corresponds to CCCCCCCCCCCCCCCC(=O)OCC(CO)OC(=O)CCCCCCCCCCCCCCC (centres undefined) [DG(16:0/16:0)] ?
Out: 7.6

###

Experiment: RP, Waters ACQUITY UPLC BEH C8, 100 × 2.1 mm, 1.7 µm, 55 °C, 0.6 mL/min, estimated dead time 0.37 min; A: 50% water + 25% acetonitrile + 25% isopropanol + 0.05% acetic acid + 20 µM phosphoric acid + 5 mM ammonium acetate; B: 50% acetonitrile + 50% isopropanol + 0.05% acetic acid + 5 mM ammonium acetate; gradient (min/%B) 0/1 0.1/1 2/30 11.5/90 12/99.9 12.5/99.9 12.55/65 12.65/30 12.75/1 12.95/1 13.25/1
Settings: stereoisomer not certain
MEASURED METRIC: LC retention time (min)
Give the quantity in min, number only.

In: What does the record list as LC retention time for CCCCCCCCCCCCCC=CC(O)C(COP(=O)([O-])OCC[N+](C)(C)C)NC(=O)CCCCCCCCCCCCCCC (stereo not given) [SM(d18:1/16:0)] ?
Out: 5.68

In: # LC retention time lookup, item CCCCCCCCCCCCCC=CC(O)C(N)COP(=O)(O)O (stereo not given) [Sphingosine-1-phosphate]
Out: 1.52

In: GET /values?readout=LC retention time&item= CCCCCCCCCCCC=CC(O)C(COP(=O)([O-])OCC[N+](C)(C)C)NC(=O)CCCCCCCCCCCCCCCCCCCCCCC (stereo not given) [SM(d16:1/24:0)]
Out: 7.9

In: Would you mind telling me what LC retention time value was observed for CCCCCCCCCCCC=CC(O)C(CO)NC(=O)CCCCCCCCCCCCCCCCCCCCCCC (stereo not given) [Cer(d16:1/24:0)] ?
Out: 8.54

In: # get_value(readout='LC retention time', item= CCCCCCCCCCCCCCCCCCCCCC(=O)NC(CO)C(O)CCCCCCCCCCCCCCC (stereo not given) [Cer(d18:0/22:0)] )
Out: 8.61
